# Measurement target: VEGF165 (Homo sapiens, UniProt P15692-4 P15692-4:27-191)
# Sequence (P15692 other isoform, or with tags, fused parts or gaps): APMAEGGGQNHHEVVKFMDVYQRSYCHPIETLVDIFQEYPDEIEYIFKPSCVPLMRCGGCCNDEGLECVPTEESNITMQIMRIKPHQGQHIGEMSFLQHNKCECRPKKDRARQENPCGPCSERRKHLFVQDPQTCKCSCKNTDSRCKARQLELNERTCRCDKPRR
# Assay explanation: SPR; overall mean +/-29; PBS + 0.1% Tween20, 20 C; double-exponential fit
# Experimental setup: tags: biotinylated, Bio-Techne, captured on Neutravidin chip; chain copies: 2
# Protocol: 2′OMe/MOE-RNA aptamers were synthesized from RNA primer Prim1 and 3′-biotinylated DNA template Temp_ARC224 (Supplementary Table 1) as described in section “Synthesis of 2′OMezymes for characterization” using 2′OMe/MOE-NTPs. […] They were then diluted and analysed in PBS+0.1% (v/v) Tween20 (PBS-Tw). […] 50 μL aptamer samples at a series of concentrations (500 nM, 250 nM, 125 nM, 62.5 nM, 31.3 nM, 15.6 nM, 7.8 nM, 3.9 nM) were injected for 150 s and dissociation was recorded for 600 s, in PBS-Tw. […]
Outcome measure: Kd (nM)

{"columns": ["Binder", "Outcome measure", "Value unit", "Numeric value"],
 "data": [
  ["CGATATGCAGTTTGAGAAGTCGCGCATTCG (XNA, 2'-OMe G and U, 2'-O-MOE A and C) [ARC224 2'OMe-GU MOE-AC]", "Kd", "nM", 30]
]}
